# condition_details: 298.15 K; 101 kPa; Liquid; Capillary tube (Ostwald / Ubbelohde) method
Below, each of the compounds is paired with its reported viscosity value.
Please give a number only; it is taken to be in mPa·s.

Check out these entries, answers already filled in.
| compound | unit_abbrev | viscosity |
| --- | --- | --- |
| CC(=O)N(C)C [N,N-dimethylethanamide] | mPa·s | 0.944 |
| O=C1CCCN1 | mPa·s | 13.19 |
| CN1CCCC1=O | mPa·s | 1.672 |

Q: Check the records and state viscosity for CN(C)C=O [dimethylformamide]
Result: 0.804

====

Below, each of the compounds is paired with its reported mass density value.
# condition_details: 298.15 K; 101.33 kPa; Liquid
Please give a number only; it is taken to be in kg/m3.

Check out these entries, answers already filled in.
| compound | mass density [kg/m3] |
| --- | --- |
| CC(=O)N(C)C [N,N-dimethylethanamide] | 936.54 |
| O=C1CCCN1 | 1106.82 |
| CN1CCCC1=O | 1027.91 |

Next compound, please.
Q: Check the records and state mass density for CN(C)C=O [dimethylformamide]
Result: 943.65
